# Tested system: Aldo-keto reductase family 1 member B1 (Rattus norvegicus, UniProt P07943)
pIC50: −log10 of the molar value.

Structure smiles string: O=C(O)CN/N=c1\n(Cc2ccc(C(F)(F)F)cc2)c2ccccc2n1C(=O)C(=O)O
pIC50: 5.58
//
Structure smiles string: O=C(O)CN/N=c1\n(Cc2ccc(Cl)cc2)c2ccccc2n1C(=O)C(=O)O
pIC50: 5.00
//
Structure smiles string: CCCn1c2ccccc2n2c(=O)c(=O)n(CC(=O)O)nc12
pIC50: 4.43
//
Structure smiles string: O=C(O)Cc1nnc2nc3ccccc3n2c1O
pIC50: 4.44
//
Structure smiles string: O=C(O)Cc1nnc2n(Cc3ccccc3)c3ccccc3n2c1=O
pIC50: 5.26

Hello, the source for this data is ChEMBL document CHEMBL1134301, in case you need it.
